Documented melting point across a set of molecules
Respond with the bare value in °C.

Use these answered entries as a reference point.
O=C1c2cc(COc3ccccc3)nn2CCN1Cc1ccccc1F 110.6
Cc1cccc(CN2CCn3nc(COc4ccccc4)cc3C2=O)n1 113.4
O=C1c2cc(COc3ccccc3)nn2CCN1Cc1ccccc1 91.5

[Q] Look up melting point: `COc1cccc(F)c1CN1CCn2nc(COc3ccccc3)cc2C1=O`
[A] 87.6

[Q] So what does the record say about melting point for `O=C1c2cc(COc3ccccc3)nn2CCN1Cc1nccc2ccccc12` ?
[A] 137.6

[Q] Any idea what its melting point is? The molecule is `COc1c(Cl)cccc1CN1CCn2nc(COc3ccccc3)cc2C1=O`
[A] 116

[Q] Recorded melting point of `COc1cc(CN2CCn3nc(COc4ccccc4)cc3C2=O)ccc1F` , please.
[A] 132.1

[Q] Return reported melting point; argument: `Cc1cc(CN2CCn3nc(COc4ccccc4)cc3C2=O)no1`
[A] 187.5

[Q] Please look up its melting point: `O=C1c2cc(COc3ccccc3)nn2CCN1Cc1nc2ccccc2o1`
[A] 145.4
